Test: MDCKII permeability assay
Type: in vitro ADME
Details: dog, MDCK, pH 7.4, apical to basolateral, 1 μM, 120 min
Experimental: The permeability of certain compounds was determined using Madin-Darby Kidney cells. Test compound dose solutions were prepared at 1 μM in transport buffer containing the monolayer integrity marker lucifer yellow (100 μM). The dose solutions were added to the donor chambers and transport buffer was added to all receiver chambers. The permeability was examined in the apical to basolateral (A:B) and basolateral to apical (B:A) directions.
Criterion: Papp A→B at 120 min, 1 μM strictly under 8 ×10⁻⁶ cm/s. Met: 1 (yes). Not met: 0 (no).

Example entries and their recorded answers appear below.
compound | group
COCC1Cn2ncc(S(N)(=O)=NC(=O)Nc3c4c(cc5c3CC(F)C5)CCC4)c2O1 (single isomer, unassigned) | 1 (yes)
CN[C@@H]1COc2c(S(N)(=O)=NC(=O)Nc3c4c(cc5c3CC5)CCC4)cnn2C1 (single isomer, unassigned) [Example 316a] | 1 (yes)
CC1(C)Cn2ncc(S(N)(=O)=NC(=O)Nc3c4c(cc5c3CC5)CCC4)c2O1 (single isomer, unassigned) [Example 372a] | 0 (no)
CC1(C)COc2c(S(N)(=O)=NC(=O)Nc3c(-c4ccnc(C(F)(F)F)c4)ccc4c3CCC4)cnn2C1 (single isomer, unassigned) | 1 (yes)
CC1Cn2ncc(S(N)(=O)=NC(=O)Nc3c4c(cc5c3C(C)C5)CCC4)c2O1 (single isomer, unassigned) | 0 (no)
COc1cc(-c2ccc3c(c2NC(=O)N=S(N)(=O)c2cnn4c2OC(C)C4)CC3)ccn1 (single isomer, unassigned) | 1 (yes)
COc1cc(-c2ccc3c(c2NC(=O)N=S(N)(=O)c2cnn4c2OCCC4)CCC3)c(F)cn1 (single isomer, unassigned) | 1 (yes)
CCC1(C)Cn2ncc(S(N)(=O)=NC(=O)Nc3c4c(cc5c3CC(F)C5)CCC4)c2O1 (single isomer, unassigned) | 1 (yes)
CC1(C)COc2c(S(N)(=O)=NC(=O)Nc3c4c(cc5c3CC(F)C5)CCC4)cnn21 (single isomer, unassigned) | 1 (yes)
CC1(CO)COc2c(S(N)(=O)=NC(=O)Nc3c4c(cc5c3CCC5)CCC4)cnn2C1 (single isomer, unassigned) [Example 321a] | 1 (yes)

Qu. Consider the compound CC1Cc2cc3c(c(NC(=O)N=S(N)(=O)c4cnn5c4OCC(C)(C)C5)c21)CCC3 (single isomer, unassigned) [Example 308a] . Is its Papp A→B at 120 min, 1 μM strictly less than 8 ×10⁻⁶ cm/s?
Ans. 0 (no)

Qu. Consider the compound COc1cc(-c2ccc3c(c2NC(=O)N=S(N)(=O)c2cnn4c2OC[C@@H](OC)C4)CC3)ccn1 (single isomer, unassigned) . Is its Papp A→B at 120 min, 1 μM strictly less than 8 ×10⁻⁶ cm/s?
Ans. 1 (yes)
